- Test system: HIV
- protocol summary: Anti-HIV activity in HIV-infected human peripheral blood lymphocytes (supernatant viral RNA and p24 core protein)
- Format: cell-based
- assay setup: Human immunodeficiency virus 1, Lymphocyte; from dose-response curves or by estimation from one or more experimental drug concentrations; read-out: anti-HIV ED50 for RNA
measured attribute: EC50

compound	EC50
CCCCCCCCCCCCCC(=O)O[C@@H]1[C@@H](C)[C@@]2(O)[C@@H](C=C(CS(=O)(=O)CCO)C[C@]3(O)C(=O)C(C)=C[C@@H]23)[C@@H]2C(C)(C)[C@]12OC(C)=O	0.5 µM
CC1=C[C@H]2[C@@]3(O)[C@H](C)[C@@H](OC(=O)Cc4ccc(F)cc4F)[C@]4(OC(=O)Cc5ccc(F)cc5F)[C@H]([C@@H]3C=C(CN=[N+]=[N-])C[C@]2(O)C1=O)C4(C)C	0.065 µM
CC1=C[C@H]2[C@@]3(O)[C@H](C)[C@@H](OC(=O)Cc4ccc(F)cc4F)[C@]4(OC(=O)Cc5ccc(F)cc5F)[C@H]([C@@H]3C=C(CBr)C[C@]2(O)C1=O)C4(C)C	< 0.001 µM
CCC[S+]([O-])CC1=C[C@H]2[C@@H]3C(C)(C)[C@]3(OC(=O)Cc3ccc(F)cc3F)[C@H](OC(=O)Cc3ccc(F)cc3F)[C@@H](C)[C@]2(O)[C@@H]2C=C(C)C(=O)[C@@]2(O)C1 (some centres unmarked)	0.5 µM
CC1=C[C@H]2[C@@]3(O)[C@H](C)[C@@H](OC(=O)Cc4ccc(F)cc4F)[C@]4(OC(=O)Cc5ccc(F)cc5F)[C@H]([C@@H]3C=C(COC(=O)Oc3ccc(O)cc3)C[C@]2(O)C1=O)C4(C)C	< 0.01 µM

Consider the following items and state reported EC50 for each.
1. COC(=O)C1=C[C@H]2[C@@H]3C(C)(C)[C@]3(OC(=O)Cc3ccc(F)cc3F)[C@H](OC(=O)Cc3ccc(F)cc3F)[C@@H](C)[C@]2(O)[C@@H]2C=C(C)C(=O)[C@@]2(O)C1
2. CCCSCC1=C[C@H]2[C@@H]3C(C)(C)[C@]3(OC(=O)Cc3ccc(F)cc3F)[C@H](OC(=O)Cc3ccc(F)cc3F)[C@@H](C)[C@]2(O)[C@@H]2C=C(C)C(=O)[C@@]2(O)C1
3. CC1=C[C@H]2[C@@]3(O)[C@H](C)[C@@H](OC(=O)Cc4ccc(F)cc4F)[C@]4(OC(=O)Cc5ccc(F)cc5F)[C@H]([C@@H]3C=C(C#N)C[C@]2(O)C1=O)C4(C)C
4. CC1=C[C@H]2[C@@]3(O)[C@H](C)[C@@H](OC(=O)Cc4ccc(F)cc4F)[C@]4(OC(=O)Cc5ccc(F)cc5F)[C@H]([C@@H]3C=C(CS(=O)(=O)CCO)C[C@]2(O)C1=O)C4(C)C
5. CC1=C[C@H]2[C@@]3(O)[C@H](C)[C@@H](OC(=O)Cc4ccc(F)cc4F)[C@]4(OC(=O)Cc5ccc(F)cc5F)[C@H]([C@@H]3C=C(CN)C[C@]2(O)C1=O)C4(C)C
6. CCCCCCCCc1ccc2c3c(c[nH]c13)C[C@@H](CSCCO)NC(=O)[C@H](C(C)C)N2C

1: 1.6 µM; 2: 0.01 µM; 3: < 0.1 µM; 4: 5 µM; 5: 0.1 µM; 6: 0.1 µM
